B1: library; numbered along this chain (parent)
chain: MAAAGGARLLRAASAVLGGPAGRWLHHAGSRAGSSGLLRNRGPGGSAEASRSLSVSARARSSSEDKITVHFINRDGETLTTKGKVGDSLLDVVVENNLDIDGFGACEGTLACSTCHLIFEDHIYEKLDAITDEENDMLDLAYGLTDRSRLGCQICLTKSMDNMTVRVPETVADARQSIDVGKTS

# Variants of: B1
# ASSAY_REMARKS: scaled log2 fold change in cell abundance, elesclomol vs control (0 = silent mean, 1 = nonsense mean) (scaled log2 ratio); higher = higher viability under elesclomol (loss of FDX1 cuproptosis function);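 note: variant abundance is its share of total variant reads in each endpoint sample, from next-generation sequencing of the integrated ORF PCR-amplified out of genomic DNA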
# CONDITION_NOTES: with HEK293T FDX1 KO; elesclomol 40 nM; glucose 10 mM; 11 days
If the reported scaled log2 fold change equals or exceeds -0.08, assign 1. If not, assign -1.

Prompt: Does scaled log2 fold change meet or surpass -0.08 for I154D ?
Response: 1

Prompt: Does scaled log2 fold change meet or surpass -0.08 for A172L ?
Response: -1

Prompt: Does scaled log2 fold change meet or surpass -0.08 for R60L ?
Response: -1

Prompt: Does scaled log2 fold change meet or surpass -0.08 for S61T ?
Response: 1

Prompt: Does scaled log2 fold change meet or surpass -0.08 for A57K ?
Response: -1

Prompt: Does scaled log2 fold change meet or surpass -0.08 for E107M ?
Response: -1

Prompt: Does scaled log2 fold change meet or surpass -0.08 for E48T ?
Response: -1

Prompt: Does scaled log2 fold change meet or surpass -0.08 for N135F ?
Response: -1

Prompt: Does scaled log2 fold change meet or surpass -0.08 for A172M ?
Response: -1

Prompt: Does scaled log2 fold change meet or surpass -0.08 for S148M ?
Response: 1

Prompt: Does scaled log2 fold change meet or surpass -0.08 for T68P ?
Response: 1

Prompt: Does scaled log2 fold change meet or surpass -0.08 for V92H ?
Response: 1

Prompt: Does scaled log2 fold change meet or surpass -0.08 for A7C ?
Response: 1

Prompt: Does scaled log2 fold change meet or surpass -0.08 for V171L ?
Response: 1

Prompt: Does scaled log2 fold change meet or surpass -0.08 for E133R ?
Response: 1

Prompt: Does scaled log2 fold change meet or surpass -0.08 for R175S ?
Response: 1

Prompt: Does scaled log2 fold change meet or surpass -0.08 for A2K ?
Response: 1

Prompt: Does scaled log2 fold change meet or surpass -0.08 for L144I ?
Response: -1

Prompt: Does scaled log2 fold change meet or surpass -0.08 for S46H ?
Response: 1

Prompt: Does scaled log2 fold change meet or surpass -0.08 for L156M ?
Response: -1

Prompt: Does scaled log2 fold change meet or surpass -0.08 for T145W ?
Response: -1

Values from the supplement of paper PMC12855868
